IC50 reference
SYSTEM NAME: Recombinant human KAT6B protein (657-1069) (Homo sapiens (Human), UniProt Q8WYB5)
Sequence (Q8WYB5 657-1069): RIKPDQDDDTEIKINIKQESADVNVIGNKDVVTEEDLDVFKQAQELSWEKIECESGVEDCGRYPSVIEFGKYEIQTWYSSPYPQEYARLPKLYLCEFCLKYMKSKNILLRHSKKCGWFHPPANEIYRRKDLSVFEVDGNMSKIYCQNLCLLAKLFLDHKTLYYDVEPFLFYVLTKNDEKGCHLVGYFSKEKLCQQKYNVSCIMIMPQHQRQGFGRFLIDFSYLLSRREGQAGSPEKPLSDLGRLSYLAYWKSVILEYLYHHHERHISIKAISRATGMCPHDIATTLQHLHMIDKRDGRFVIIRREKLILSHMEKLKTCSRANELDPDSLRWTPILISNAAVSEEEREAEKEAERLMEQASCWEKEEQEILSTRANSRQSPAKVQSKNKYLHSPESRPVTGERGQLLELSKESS
MEASUREMENT PROTOCOL: KAT6B biochemical TR-FRET assay
CONDITIONS USED: histone H4 peptide 1000 nM, AcCoA 100 nM, enzyme 5 nM

COc1ccc(C(C)(C)C)nc1S(=O)(=O)NC(=O)c1ccc(Cn2cccn2)c(C2CC2)n1    ≤ 5 nM
COc1cc(C(=O)NS(=O)(=O)c2cc(C(C)(C)C)ccc2OC)ccc1Cn1cccn1    ≤ 5 nM
C#Cc1cc(C(=O)NS(=O)(=O)c2cc3c(cc2OC)CCC3)ccc1Cn1cccn1    5 to 50 nM

Let us move to another entry and its IC50.
Ask | Give the reported IC50 for this compound. C=Cc1cc(C(=O)NS(=O)(=O)c2c(OC)ccc3c2OC(C)(C)C3)ccc1Cn1cccn1
Reply | ≤ 5 nM

----------
pIC50 reference
SYSTEM NAME: Recombinant human KAT6A protein (497-780) (Homo sapiens (Human), UniProt Q92794)
Sequence (Q92794 497-780): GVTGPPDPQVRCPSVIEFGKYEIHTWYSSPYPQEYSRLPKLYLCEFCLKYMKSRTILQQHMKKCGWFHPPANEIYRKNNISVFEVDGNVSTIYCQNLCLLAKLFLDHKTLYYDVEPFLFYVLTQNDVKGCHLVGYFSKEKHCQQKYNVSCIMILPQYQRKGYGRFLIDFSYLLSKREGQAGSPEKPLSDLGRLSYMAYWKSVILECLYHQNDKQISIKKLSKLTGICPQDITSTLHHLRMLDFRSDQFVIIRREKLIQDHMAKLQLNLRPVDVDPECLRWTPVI
MEASUREMENT PROTOCOL: KAT6A biochemical TR-FRET assay
CONDITIONS USED: histone H4 peptide 2000 nM, AcCoA 300 nM, enzyme 5 nM
pIC50: −log10 of the molar value.

Here is how some molecules turned out for pIC50.
CCc1cc(C(=O)NS(=O)(=O)c2c(OC)ccc3c2OCC3(C)C)ccc1Cn1cccn1 [Example C51]    ≥ 8.30
CCc1nc(C(=O)NS(=O)(=O)c2c(OC)ccc3c2OCC3(C)C)ccc1Cn1cccn1 [Example C53]    ≥ 8.30
COc1ccc(C(C)(C)C(F)(F)F)nc1S(=O)(=O)NC(=O)c1ccc(Cn2cccn2)c(OC)n1 [Example C54]    ≥ 8.30
COc1ccc2c(c1S(=O)(=O)NC(=O)c1ccc(Cn3cccn3)c(OC)n1)OCCC2(C)C [Example C39]    ≥ 8.30

Ask | Give the reported pIC50 for this molecule. COc1cnc(C(C)(C)C)cc1S(=O)(=O)NC(=O)c1ccc(Cn2cccn2)c(OC)n1 [Example C72]
Reply | ≥ 8.30

Ask | Give the reported pIC50 for this molecule. COc1cc(C(=O)NS(=O)(=O)c2cc(C(C)(C)C)ccc2OC)ccc1Cn1cccn1 [Example C7]
Reply | ≥ 8.30

Ask | Give the reported pIC50 for this molecule. [2H]C([2H])([2H])Oc1nc(C(=O)NS(=O)(=O)c2c(OC)ccc3c2OC(C)(C)C3)ccc1Cn1cccn1 [Example C65]
Reply | ≥ 8.30

Ask | Give the reported pIC50 for this molecule. COc1cc2c(cc1S(=O)(=O)NC(=O)c1ccc(Cn3cccn3)c(OC)n1)C(C)(C)CO2 [Example C61]
Reply | ≥ 8.30

Ask | Give the reported pIC50 for this molecule. COc1ccc(N2CC3CCC(C2)O3)cc1S(=O)(=O)NC(=O)c1ccc(Cn2cccn2)c(OC)n1 [Example C62]
Reply | ≥ 8.30

Ask | Give the reported pIC50 for this molecule. COc1ccc(C(C)(C)C)cc1S(=O)(=O)NC(=O)c1ccc(Cn2cccn2)c(Br)c1 [Example C14]
Reply | ≥ 8.30

Ask | Give the reported pIC50 for this molecule. [2H]C([2H])([2H])Oc1ccc(C(C)(C)C)nc1S(=O)(=O)NC(=O)c1ccc(Cn2cccn2)c(OC)n1 [Example C66]
Reply | ≥ 8.30

Ask | Give the reported pIC50 for this molecule. [2H]C([2H])([2H])Oc1nc(C(=O)NS(=O)(=O)c2nc(C(C)(C)C)ccc2OC)ccc1Cn1cccn1 [Example C63]
Reply | ≥ 8.30

Ask | Give the reported pIC50 for this molecule. [2H]C([2H])([2H])Oc1nc(C(=O)NS(=O)(=O)c2c(OC)ccc3c2OCC3(C)C)ccc1Cn1cccn1 [Example C64]
Reply | ≥ 8.30

Ask | Give the reported pIC50 for this molecule. COc1ccc(C(C)(C)C)nc1S(=O)(=O)NC(=O)c1ccc(Cn2cccn2)c(C2COC2)c1 [Example C19]
Reply | ≥ 8.30

Ask | Give the reported pIC50 for this molecule. COCc1cc(C(=O)NS(=O)(=O)c2cc(C(C)(C)C)ccc2OC)ccc1Cn1cccn1 [Example C12]
Reply | 7.30 to 8.30
